Measured values drawn from paper PMC4336329 for this set.

Please respond with reported hERG current change (%, negative = inhibition) at 10uM for every item in the list.
targetSystem: human ether-à-go-go-related gene (hERG) potassium channel (human, UniProt Q12809)
Sequence (Q12809 whole entry, looked up): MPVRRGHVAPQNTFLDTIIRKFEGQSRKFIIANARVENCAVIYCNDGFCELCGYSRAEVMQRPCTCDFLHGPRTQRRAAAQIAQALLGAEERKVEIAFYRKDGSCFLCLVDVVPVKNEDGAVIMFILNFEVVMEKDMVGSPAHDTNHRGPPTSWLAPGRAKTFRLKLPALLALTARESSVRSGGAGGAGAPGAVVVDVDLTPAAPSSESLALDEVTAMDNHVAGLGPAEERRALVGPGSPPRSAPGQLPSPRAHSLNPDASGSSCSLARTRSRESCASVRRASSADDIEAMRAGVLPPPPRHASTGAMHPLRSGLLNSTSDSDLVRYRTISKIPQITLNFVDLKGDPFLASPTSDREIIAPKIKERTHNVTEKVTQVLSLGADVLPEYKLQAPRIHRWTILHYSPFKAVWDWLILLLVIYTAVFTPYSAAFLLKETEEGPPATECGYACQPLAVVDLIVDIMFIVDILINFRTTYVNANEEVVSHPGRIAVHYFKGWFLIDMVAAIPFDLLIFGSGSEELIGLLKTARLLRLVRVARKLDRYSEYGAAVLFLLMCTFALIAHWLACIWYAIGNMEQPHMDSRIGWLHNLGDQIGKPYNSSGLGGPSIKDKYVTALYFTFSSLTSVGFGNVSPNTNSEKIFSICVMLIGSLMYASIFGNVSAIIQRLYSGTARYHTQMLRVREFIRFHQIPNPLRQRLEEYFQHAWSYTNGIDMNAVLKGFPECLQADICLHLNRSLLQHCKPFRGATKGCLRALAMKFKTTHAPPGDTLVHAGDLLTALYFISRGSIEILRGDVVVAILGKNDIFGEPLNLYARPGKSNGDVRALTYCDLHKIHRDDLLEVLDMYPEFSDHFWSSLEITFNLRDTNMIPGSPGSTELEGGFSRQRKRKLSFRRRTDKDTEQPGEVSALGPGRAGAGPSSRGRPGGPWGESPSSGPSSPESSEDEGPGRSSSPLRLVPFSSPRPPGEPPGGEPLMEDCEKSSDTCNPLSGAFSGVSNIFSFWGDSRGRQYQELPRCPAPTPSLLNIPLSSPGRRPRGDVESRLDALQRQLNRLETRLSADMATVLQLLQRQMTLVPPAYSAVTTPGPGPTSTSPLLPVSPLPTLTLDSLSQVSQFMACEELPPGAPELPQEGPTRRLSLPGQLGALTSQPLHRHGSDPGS
runDescription: primary screen, population patch clamp on CHO cells stably expressing hERG; higher = less effect of the substance
The whole screen tested about 310,000 compounds, of which about 14,000 (4.5%) showed an effect of 50% or more. The effect is printed as a negative number. The list comes from a sample in which strong results are over-represented; it also holds close analogues and randomly drawn compounds.
Give bare numbers, in %.

A selection of reference data follows.
> print(dat)
                                   compound  observedvalue
1  CCOC(=O)C1CCCN(C(=O)CCCn2nc(C)n3c(cc4sccc43)c2=O)C1 (stereo not drawn)          -49.3
2  COCCNC(C(=O)Nc1cc(Cl)cc(Cl)c1)c1ccccc1 (stereo not drawn)          -16.4
3  COc1ccc(CCNS(=O)(=O)c2ccc3oc(C(=O)O)c(C)c3c2)cc1OC         0.0936
4        CN(Cc1nc2ccccc2s1)C(=O)c1ccc(F)cc1            -61
5       CC(C)C(=O)Nc1ccc([N+](=O)[O-])cc1Br          -5.22

The following compounds each have a reported value; give each one's hERG current change (%, negative = inhibition) at 10uM.
1. COC(C(=O)Nc1ccc(F)cc1)c1ccccc1 (stereo not drawn)
2. COc1ccc(CCNC(=O)Cn2nc(C)n3nc(-c4ccccc4)cc3c2=O)cc1OC
3. O=C(OC(C(=O)Nc1ccc([N+](=O)[O-])cc1Br)c1ccccc1)c1ccccc1 (stereo not drawn)

## Output
[-0.691, 2, 5.91]

Take each entry in turn and give its hERG current change (%, negative = inhibition) at 10uM.
1. CC1=C(C(=O)Nc2cccc(C(=O)NC3CCCCC3C)c2)SCCO1 (stereo not drawn)
2. CCOc1ccc(S(=O)(=O)NCCC(=O)OC(C)C(=O)N2CCc3ccccc32)cc1 (stereo not drawn)
3. COCCNC(C(=O)Nc1ccc(C)cc1[N+](=O)[O-])c1ccccc1 (stereo not drawn)
4. c1ccc(CNCC2COc3ccccc3O2)cc1 (stereo not drawn)
5. CN(C)C(CNC(C(=O)Nc1ccc(F)cc1)c1ccccc1)c1ccccc1 (stereo not drawn)
6. CCN(CC)CCNC(C(=O)Nc1ccc([N+](=O)[O-])cc1Br)c1ccccc1 (stereo not drawn)
7. Cc1ccc(NC(=O)NCC(c2ccccc2)N(C)C)cc1 (stereo not drawn)
8. CCCCCCCCCC(=O)N[C@H](CN1CCOCC1)[C@H](O)c1ccccc1.Cl

## Output
-17.8
-22.6
-6.29
8.17
-70.6
-77
12.4
-16.6

Lab note: each compound below needs its hERG current change (%, negative = inhibition) at 10uM filled in.
1. O=C(CCCc1nc2ccccc2s1)NCc1ccc(F)cc1
2. COc1ccc(C(=O)Nc2ccc(S(=O)(=O)Nc3nccnc3OC)cc2)cc1
3. Cc1cc(/C=N/n2cnnc2)c(C)n1-c1cccc(Cl)c1
4. Cc1nn(CC(=O)Nc2ccccn2)c(C)c1Br
5. CCOC(=O)CCCn1nc(C)n2c(cc3sccc32)c1=O

## Output
[-37.4, 8.73, -22.2, 15.3, -21.6]

----------
targetSystem: human ether-à-go-go-related gene (hERG) potassium channel (human);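 note: peak tail current of the secondary pulse compared with the same well before compound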
runDescription: primary screen, population patch clamp on CHO cells stably expressing hERG; higher = less effect of the substance
About 14,000 (4.5%) of roughly 310,000 compounds showed an effect of 50% or more. The effect is printed as a negative number. For the sample, strong results were picked, then their nearest neighbours and some compounds at random.
attributeMeasured: hERG current change (%, negative = inhibition) at 10uM (%)
Numbers only, in %.

// known answers, use as guide
> print(dat)
                          structureassmiles  observedvalue
1    CCS(=O)(=O)n1nc(-c2ccccc2)nc1NCc1ccco1          -29.9
2     COCCCNC(=O)c1cc2c(=O)n3cccc(C)c3nc2s1           7.44
3         Cc1ccc(/C=N/Nc2ncnc3nc[nH]c23)cc1          -18.6
4  COCCCNC(=O)c1cc2c(=O)n3cccc(C)c3nc2n(C(C)C)c1=N          -65.5

Note: attention shifts to another entry.
## Input Look up hERG current change (%, negative = inhibition) at 10uM: CC1CCN(C(=O)c2nc[nH]c2C(=O)OCCNC(=O)OC(C)(C)C)CC1
## Output 4.23

----------
targetSystem: human ether-à-go-go-related gene (hERG) potassium channel (human);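 note: peak tail current of the secondary pulse compared with the same well before compound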
runDescription: primary screen, population patch clamp on CHO cells stably expressing hERG; higher = less effect of the substance
The whole screen tested about 310,000 compounds, of which about 14,000 (4.5%) showed an effect of 50% or more. The effect is printed as a negative number. The full list was thinned out, with strong results kept by preference.
Classification field: T = hERG current change (%, negative = inhibition) at 10uM at or over -10%; F = hERG current change (%, negative = inhibition) at 10uM under -10%.

> print(dat)
                                   molecule  label
1  CCOC(=O)c1c(N)nn(C(=O)C(C)C)c1-c1ccc(OC)cc1      T
2  COCCC(=O)N1CCC(Oc2ccc(C(=O)N(C)C(C)c3ccon3)cc2)CC1 (stereo not shown)      T
3   CC(=O)N1CCN(C(=O)CSc2cc(C)c(Br)cc2C)CC1      T
4  CC1=CC(C)(C)N(C(=O)CSc2nnc(N)s2)c2cc(C)c(C)cc21      T
5  Cc1ccc(Cl)cc1N1CCN(C(=O)C2CCN(c3nnc(-n4cccc4)s3)CC2)CC1      F

## Input Reported hERG current change (%, negative = inhibition) at 10uM reaches at least -10% for COc1ccc(C2(c3ccc(OC)cc3)NC(=O)N(CC(=O)Nc3ccc(OC)c(OC)c3)C2=O)cc1 ?
## Output T

## Input Next record, please: Cc1nn(CC2CCCCC2)c(N)c1-c1ccccc1
## Output F

## Input Also CCN1CCN(S(=O)(=O)c2ccc(Cl)c(C(=O)N(C)Cc3ccc(Cl)cc3Cl)c2)CC1 ?
## Output T

## Input Same question for CC12CCC3c4ccc(O)cc4CCC3C1CC(O)C2O (stereo not shown) please.
## Output T

## Input Moving on to CCN1CCN(S(=O)(=O)c2ccc(Cl)c(C(=O)N(C)Cc3ccccc3)c2)CC1
## Output F

## Input And then O=C(C1CCN(c2nnc(-n3cccc3)s2)CC1)N1CCN(c2cccc(C(F)(F)F)c2)CC1 , what is it?
## Output F

## Input Next: CCN1CCN(S(=O)(=O)c2ccc(Cl)c(C(=O)N(C)C(c3ccccc3)c3ccccc3)c2)CC1
## Output F

----------
targetSystem: human ether-à-go-go-related gene (hERG) potassium channel (human, UniProt Q12809);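 note: peak tail current of the secondary pulse compared with the same well before compound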
runDescription: primary screen, population patch clamp on CHO cells stably expressing hERG; higher = less effect of the substance
Experimental: Briefly, Chinese hamster ovary (CHO) cells stably expressing the hERG channel were dislodged from tissue culture flasks and dispensed into PPC plates. […] During the recording, background leak currents were estimated by a 100 ms step to -80 mV from an initial holding potential of -70 mV and subtracted from the subsequent current measurement. The campaign was conducted in two phases using slight differences in recording protocol. […]
Screen size: about 310,000 compounds; about 14,000 (4.5%) showed an effect of 50% or more. The effect is printed as a negative number. Shown is part of a subset that was picked to be rich in strong results.
# binarize hERG current change (%, negative = inhibition) at 10uM: threshold 10% inclusive, high side T, low side F

## Input Please check the record O=C(CSC1=NS(=O)(=O)c2cc(Cl)ccc2N1)NCCc1ccccc1 and state if its hERG current change (%, negative = inhibition) at 10uM is at or above 10%.
## Output T

## Input Next compound: CC(=O)c1cccc(NC(=O)COC(=O)c2ccccn2)c1
## Output F

----------
targetSystem: human ether-à-go-go-related gene (hERG) potassium channel (human, UniProt Q12809);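 note: peak tail current of the secondary pulse compared with the same well before compound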
runDescription: primary screen, population patch clamp on CHO cells stably expressing hERG; higher = less effect of the substance
Among all 310,000 compounds or so, about 14,000 (4.5%) showed an effect of 50% or more. The effect is printed as a negative number. The sample as a whole holds a higher share of strong results than the screen did.
Task for the reader: assign each of the following compounds its reported hERG current change (%, negative = inhibition) at 10uM.
Give bare numbers, in %.

For orientation, consider the following solved cases.
> print(dat)
                                   compound                              targetsystem  observedvalue
1  CCN1C(=O)/C(=C2/C=Cc3cc(C)ccc3N2CC)N(C)C1=S  human ether-à-go-go-related gene (hERG) potassium channel (human, UniProt Q12809)          -54.8
2  Cc1cc(C)n(CCN(C)C(=O)CCc2nnc(CCC3CCCCC3)o2)n1  human ether-à-go-go-related gene (hERG) potassium channel (human, UniProt Q12809)          -4.29
3  CC(C)CC(=O)NC(=S)N1CCN(c2ccc([N+](=O)[O-])cc2Cl)CC1  human ether-à-go-go-related gene (hERG) potassium channel (human, UniProt Q12809)          -30.9
4   COc1ccc(CC(=O)N(C)CC(=O)Nc2ccccc2SC)cc1  human ether-à-go-go-related gene (hERG) potassium channel (human, UniProt Q12809)           8.56
5  CCN1/C(=C2\C(=O)N(C)C(=S)N2C)C=Cc2cc(C)ccc21  human ether-à-go-go-related gene (hERG) potassium channel (human, UniProt Q12809)          -33.4
6  CCN1/C(=C2/SC(=S)N(C)C2=O)C=Cc2cc(C)ccc21  human ether-à-go-go-related gene (hERG) potassium channel (human, UniProt Q12809)          -1.96

Go through the items and report each one's hERG current change (%, negative = inhibition) at 10uM.
1. O=C1CC(c2ccccc2)n2nc(NC(=O)C3CCCO3)nc2N1 (centres unmarked)
2. CC(C)CC(=O)N1CCN(c2ccc([N+](=O)[O-])cc2Cl)CC1
3. O=C(NCC1OCCCN1S(=O)(=O)c1cc(F)ccc1F)C(=O)NC1CCCCC1 (centres unmarked)
4. CC1(C)Cc2c(sc(NC(=O)c3ccc4ncsc4c3)c2C(N)=O)C(C)(C)N1
5. CC(C)C(=O)N1CCN(c2ccc([N+](=O)[O-])cc2Cl)CC1
6. COc1cccc(C(=O)N2CCN(Cc3cccc(F)c3)CC2)c1.O=C(O)C(=O)O
7. COc1ccc(-n2c(Cc3cccn3C)nnc2SCC(=O)NCc2ccco2)cc1

## Output
1: -10; 2: -59.9; 3: -3.8; 4: -30.5; 5: -30.9; 6: -7.48; 7: -12.9
